Listed below: Inhibition values for each entry.
system: HepG2; assay: GSK_TCMDC: Percent inhibition of human HepG2 cell line. Test compounds present at 10uM.; type: functional
Write it as a number; the unit % goes unstated.

| compound | Inhibition [%] |
| --- | --- |
| N=C(N)NN=CC(=O)Nc1ccc(C(F)(F)F)cc1.O=S(=O)(O)O | 5 |
| Cc1ccc(NC(=O)c2cc([N+](=O)[O-])ccc2NCc2cccnc2)cc1Cl | 9 |
| CC(CN1CCN(C)CC1)C(=O)Nc1ccc(-c2cccc(-c3nc4cc(C(F)(F)F)ccc4[nH]3)c2)cc1 (stereo not given) | 16 |
| O=C(c1ccc([N+](=O)[O-])o1)N1CCN(c2nc3c(Cl)cccc3s2)CC1 | 0 |

Next, consider the following compound.
GET /value?item= FC(F)(F)c1ccc(-c2ccc(CNC3CCN(CCN4CCOCC4)CC3)cc2)cc1 &field=Inhibition returns 44

---

system: HepG2; assay: GSK_TCMDC: Percent inhibition of human HepG2 cell line. Test compounds present at 10uM.; assay type: functional
measured.parameter: Inhibition (%)
Write it as a number; the unit % goes unstated.

Answered cases to consult:
| molecule | Inhibition [%] |
| --- | --- |
| CNC(=O)c1cnc(Nc2ccc(OCC(O)CN(C)C)cc2)nc1Nc1cccc(OC)c1.O=C(O)C(F)(F)F (centres undefined) | 31 |
| Cc1ccc2[nH]c(-c3cc(-c4cccc(CCN5CCOCC5)c4)cnc3N)nc2c1.O=C(O)C(F)(F)F | 50 |
| CC(C)(C)c1ccc2nccc(Nc3cccc(O)c3)c2c1 | 8 |

GET /value?item= Cl.O=C(O[C@H]1CN[C@H](C#Cc2cc3c(Nc4ccc(OCc5cccc(F)c5)c(Cl)c4)ncnc3s2)C1)N1CCCC1 &field=Inhibition returns 11

---

test system: Plasmodium falciparum; experiment: GSK_TCMDC: Inhibition of Plasmodium falciparum 3D7 in whole red blood cells, using parasite LDH activity as an index of growth. Test compounds present at 2uM; assay type: functional
measured.parameter: Inhibition (%)
Write it as a number; the unit % goes unstated.

GET /value?item= CC(Nc1ccc2c(c1)OCCO2)C(=O)Nc1cc(C(F)(F)F)ccc1N1CCOCC1 (centres undefined) &field=Inhibition returns 98

GET /value?item= O=C(Nc1cccc(OC2CCN(Cc3ccsc3)CC2)c1)c1ccc(C(F)(F)F)cc1.O=C(O)C(F)(F)F &field=Inhibition returns 98

GET /value?item= CCCCCc1cnc2nc(N)nc(N)c2c1C.Cl &field=Inhibition returns 96

GET /value?item= Cc1cc(N[C@@H](Cc2ccccc2)C(=O)NCc2cccs2)nc(Nc2ccccc2)n1.O=C(O)C(F)(F)F &field=Inhibition returns 96

---

Listed below: Inhibition values for each entry.
test system: HepG2; assay: GSK_TCMDC: Percent inhibition of human HepG2 cell line. Test compounds present at 10uM.; format: functional
Write it as a number; the unit % goes unstated.

| molecule | Inhibition, % |
| --- | --- |
| COc1cc2c(cc1C=CC(=O)N1CCN(Cc3nc(O)c4c(C)c(C)sc4n3)CC1)OC(C)C2 (stereo unspecified) | 0 |
| Cl.OCCNc1nc(Nc2ccc(F)cc2)nc2ccccc12 | 10 |

GET /value?item= CCCCCc1cnc2nc(N)nc(N)c2c1.O=S(=O)(O)CCO &field=Inhibition returns 72

GET /value?item= COc1cccc2c(Oc3ccccc3C)ccnc12 &field=Inhibition returns 0

GET /value?item= CN(C)c1ccc(C=C2SC(=O)N=C2Nc2ccccc2)cc1 &field=Inhibition returns 42

GET /value?item= CC[C@H](C)CNC(=O)c1ccnc(-c2ccc(CNC3Cc4ccccc4C3)cc2)c1.O=C(O)C(F)(F)F &field=Inhibition returns 18

GET /value?item= Cc1nc2ccc(NC(=O)c3cc(S(=O)(=O)N(C)C)ccc3Cl)cc2s1 &field=Inhibition returns 20

GET /value?item= c1ccc(-c2nc(NCCCn3ccnc3)cc(-c3ccncc3)n2)cc1 &field=Inhibition returns 42
